molecular target: Serine/threonine-protein kinase 26 (Homo sapiens, UniProt Q9P289); settings: dose 10.0 µM
Sequence (Q9P289 2-416 limits assumed): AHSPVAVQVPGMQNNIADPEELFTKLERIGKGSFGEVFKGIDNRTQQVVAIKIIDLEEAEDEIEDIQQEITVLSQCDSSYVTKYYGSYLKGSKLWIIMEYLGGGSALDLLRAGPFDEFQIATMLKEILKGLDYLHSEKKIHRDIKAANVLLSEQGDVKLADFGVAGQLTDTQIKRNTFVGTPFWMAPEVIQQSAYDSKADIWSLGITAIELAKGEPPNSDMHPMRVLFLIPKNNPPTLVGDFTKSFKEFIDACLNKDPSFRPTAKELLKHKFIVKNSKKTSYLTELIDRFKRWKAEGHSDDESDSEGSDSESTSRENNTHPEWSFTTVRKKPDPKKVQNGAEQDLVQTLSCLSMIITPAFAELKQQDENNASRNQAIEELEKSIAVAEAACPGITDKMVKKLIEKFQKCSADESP
Description: Binding affinity to recombinant MST4 (unknown origin) kinase domain assessed as thermal stabilization by measuring change in melting temperature at 10 uM by DSF analysis
quantity_measured: ΔTm (°C)

Worked cases, ΔTm given:
N#CCc1ccc(Nc2nccc(Nc3cc(C4CC4)[nH]n3)n2)cc1 = 7.1
O=C1NCCCCCCNc2ncc(Cl)c(n2)Nc2cc1[nH]n2 = 2.1

1 = O=C1NCCCCCNc2nc(c3ccccc3n2)Nc2cc1[nH]n2
2 = O=C1NCCCCCNc2ncc(Cl)c(n2)Nc2cc1[nH]n2
3 = O=C1NCCOCCNc2nc(c3ccccc3n2)Nc2cc1[nH]n2
4 = O=C1NCCc2cccc(c2)Nc2ncc(Cl)c(n2)Nc2cc1[nH]n2
Task: Task field, ranking: reported ΔTm, descending order. Response field: labels, in requested order.
Result: 1, 3, 2, 4

---

Biological target: Serine/threonine-protein kinase 3 (Homo sapiens, UniProt Q13188)
Sequence (Q13188 whole entry): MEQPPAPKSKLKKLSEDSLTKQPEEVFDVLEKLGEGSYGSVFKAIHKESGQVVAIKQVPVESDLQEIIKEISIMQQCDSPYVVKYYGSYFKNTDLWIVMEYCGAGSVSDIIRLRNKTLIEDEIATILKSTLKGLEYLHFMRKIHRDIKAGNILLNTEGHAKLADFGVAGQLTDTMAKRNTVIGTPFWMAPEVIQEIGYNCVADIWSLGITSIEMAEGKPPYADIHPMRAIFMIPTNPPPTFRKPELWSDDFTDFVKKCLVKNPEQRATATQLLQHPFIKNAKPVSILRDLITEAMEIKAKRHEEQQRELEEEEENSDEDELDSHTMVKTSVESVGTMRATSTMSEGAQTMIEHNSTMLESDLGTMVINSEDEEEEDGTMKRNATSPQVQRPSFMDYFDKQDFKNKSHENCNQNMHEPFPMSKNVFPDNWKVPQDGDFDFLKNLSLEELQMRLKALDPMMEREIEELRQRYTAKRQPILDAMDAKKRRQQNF
Assay: Binding affinity to N-terminal full length human MST2 expressed in intact HEK293T cells incubated for 2 hrs by NanoBRET assay
quantity_measured: EC50 (µM)

Worked cases, EC50 given:
O=C1NCCCCCCNc2nc(c3ccccc3n2)Nc2cc1[nH]n2 = 40.1
O=C1NCCc2ccc(cc2)Nc2nc(c3ccccc3n2)Nc2cc1[nH]n2 = 28.3
O=C1NCCc2ccc(cc2)Nc2ncc(Cl)c(n2)Nc2cc1[nH]n2 = 9.96
O=C1NCCCCCNc2ncc(Cl)c(n2)Nc2cc1[nH]n2 = 10.1

P = O=C1NCCc2cccc(c2)Nc2nc(c3ccccc3n2)Nc2cc1[nH]n2
Q = O=C1NCCc2cccc(c2)Nc2ncc(Cl)c(n2)Nc2cc1[nH]n2
Task: Which numeric EC50 is bigger, that of P or that of Q ? Mark your answer with the label of the selected entry.
Result: P

---

molecular target: Serine/threonine-protein kinase 26 (Homo sapiens, UniProt Q9P289); assay: Binding affinity to C-terminal full length human MST4 expressed in intact HEK293T cells incubated for 2 hrs by NanoBRET assay; type: cell-based
Sequence (Q9P289 whole entry): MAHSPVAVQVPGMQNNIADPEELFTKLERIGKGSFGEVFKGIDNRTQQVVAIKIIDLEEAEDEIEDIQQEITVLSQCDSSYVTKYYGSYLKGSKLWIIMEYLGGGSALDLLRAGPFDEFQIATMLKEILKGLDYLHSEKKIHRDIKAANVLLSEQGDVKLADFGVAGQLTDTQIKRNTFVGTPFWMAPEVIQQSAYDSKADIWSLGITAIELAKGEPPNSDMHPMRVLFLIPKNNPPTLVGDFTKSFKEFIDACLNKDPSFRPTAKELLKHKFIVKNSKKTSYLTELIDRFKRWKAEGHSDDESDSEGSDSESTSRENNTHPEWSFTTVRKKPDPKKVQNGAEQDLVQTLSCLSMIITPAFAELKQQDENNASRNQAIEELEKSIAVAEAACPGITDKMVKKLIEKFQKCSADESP
pEC50: −log10 of the molar value.
quantity_measured: pEC50

O=C1NCCCCCNc2nc(c3ccccc3n2)Nc2cc1[nH]n2 = 5.84
O=C1NCCc2cccc(c2)Nc2ncc(Cl)c(n2)Nc2cc1[nH]n2 = 4.99

a = O=C1NCCc2ccc(cc2)Nc2ncc(Cl)c(n2)Nc2cc1[nH]n2
b = O=C1NCCOCCNc2nc(c3ccccc3n2)Nc2cc1[nH]n2
c = O=C1NCCc2cccc(c2)Nc2nc(c3ccccc3n2)Nc2cc1[nH]n2
Task: Task field, ranking: reported pEC50, descending order. Response field: labels, in requested order.
Result: a, c, b

a = Cc1cnc2nc1Nc1cc([nH]n1)C(=O)NCCc1ccc(cc1)N2
b = O=C1NCCc2ccc(cc2)Nc2nc(c3ccccc3n2)Nc2cc1[nH]n2
Task: Look at a and b . Which one has the lower recorded pEC50 number? Mark your answer with the label of the selected entry.
Result: a
